Assay: Particle size and PDI of lipid nanoparticles by dynamic light scattering
Format: physicochemical
Settings: lipid nanoparticles with luciferase mRNA; ionizable lipid/cholesterol/DSPC/DMG-PEG2000 50/38.5/10/1.5 mol%
PROPERTY: Particle size (nm)
Give the value in nm but do not write nm after it.

CCCCCCCCCCCOC(=O)OCCCCN(CCO)CCCCCCC(C)(C)C(=O)OCC(CCCCCCC)CCCCCCC [37a] ... 110.67
CCCCCCCCCC(=O)OCC(C)(C)CCCCCN(CCCO)CCCCCCC(=O)OCC(CCCCCCCC)CCCCCCCC [76b] ... 91.27
CCCCCCCCCCC(=O)OCCCC(C)(C)CCCN(CCCO)CCCCCCC(=O)OCC(CCCCCCCCC)CCCCCCCCC [114b] ... 103.40
CCCCCCCCCC(=O)OCCC(C)(C)CCCCCN(CCO)CCCCCCC(=O)OCCC(CCCCCCCC)CCCCCCCC [108b] ... 86.61

Sure, the documented Particle size (nm) for CCCCCCCCCC(=O)OCCC(C)(C)CCCCCN(CCO)CCCCCCCCC(=O)OCC(CCCCCCC)CCCCCCC [107b] is 88.13

Sure, the documented Particle size (nm) for CCCCCCCCCCOC(=O)OCCCCCN(CCO)CCCCCCC(C)(C)C(=O)OC(CCCCCCCC)CCCCCCCC [31a] is 115.56

Sure, the documented Particle size (nm) for CCCCCCCCCCOC(=O)CCCCC(C)(C)CCN(CCCCO)CCCCCCCC(=O)OC(CCCCCCCCC)CCCCCCCCC [67a] is 111.33

Sure, the documented Particle size (nm) for CCCCCCCCCCOC(=O)CCC(C)(C)CCCCN(CCCCO)CCCCCCCC(=O)OC(CCCCCCCCC)CCCCCCCCC [29a] is 88.59

Sure, the documented Particle size (nm) for CCCCCCCCCCCOC(=O)CCCCCN(CCO)CCCCCCC(C)(C)C(=O)OCCC(CCCCCC)CCCCCC [15a] is 95.94

Sure, the documented Particle size (nm) for CCCCCCCCCC(CCCCCCCCC)OC(=O)CCCCCCCN(CCO)CCCCCC(C)(C)COC(=O)CCCC(CCCCCC)CCCCCC [66b] is 81.83

Sure, the documented Particle size (nm) for CCCCCCCCCC(=O)OCCC(C)(C)CCCCN(CCCO)CCCCCCC(=O)OCCC(CCCCCCC)CCCCCCC [103b] is 96.82

Sure, the documented Particle size (nm) for CCCCCCCCCSC(=O)CCCCCCCN(CCO)CCCCCCC(C)(C)C(=O)OC(CCCCCCCC)CCCCCCCC [52a] is 79.40

Sure, the documented Particle size (nm) for CCCCCCCCCC(=O)OCCCC(C)(C)CCCN(CCCO)CCCCCCC(=O)OCCC(CCCCCCC)CCCCCCC [92b] is 99.90

Sure, the documented Particle size (nm) for CCCCCCCCCC(=O)OCC1(CCCCCN(CCCCO)CCCCCCCC(=O)OC(CCCCCCCC)CCCCCCCC)CC1 [15b] is 120.27

Sure, the documented Particle size (nm) for CCCCCCCCCOC(=O)CCCCCCCN(CCO)CCCCC(C)(C)CCC(=O)OC(CCCCCCCC)CCCCCCCC [20a] is 102.13

The values you see were collected from patent US12617752B2.
